molecular target: ~100 representative kinases (Homo sapiens); construct: Recombinant protein kinase domains with a concentration of 2 μM; experiment: DSF 100 kinase selectivity screen; format: binding; details: Protein EPHA4; average of three replicates;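 also: compound tested at 20 µM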
endpoint.name: dTm (K)
Numbers only, in K.

COc1ccc(NC(=O)C2(C(=O)Nc3cccc(-c4c[nH]c5ncnc(N6CCOCC6)c45)c3)CC2)cc1 = -0.05

Answer for every listed entry: what is its dTm? The entries follow.
1. Cc1cc(NC(=O)C2(C(=O)Nc3ccc(F)cc3)CC2)cc(-c2c[nH]c3ncnc(N4CCOCC4)c23)c1
2. C[C@@H]1CN(c2cc(-c3n[nH]c4ccc(OC5(C)CC5)cc34)ncn2)C[C@H](C)O1
3. O=C(Nc1ccc(F)cc1)C1(C(=O)Nc2cccc(-c3c[nH]c4ncnc(N5CCOCC5)c34)c2)CC1

[2.49, -0.15, 2.10]

###

Target: ~100 representative kinases (Homo sapiens)
Construct: Recombinant protein kinase domains with a concentration of 2 μM
Assay: DSF 100 kinase selectivity screen;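 also: compound tested at 20 µM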
Format: binding
Details: Protein RPS6KA5; DSF; average of three replicates
Procedure: Recombinant protein kinase domains with a concentration of 2 μM were mixed with a 20 μM compound solution in dimethyl sulfoxide (DMSO), 20 mM Hepes (pH 7.5), and 500 mM NaCl. SYPRO Orange (5000×, Invitrogen) was added as a fluorescence probe (1μl/ml). Subsequently, temperature-dependent protein unfolding profiles were measured using the QuantStudio 5 realtime PCR machine (Thermo Fisher Scientific, Waltham, MA, USA). […] The temperature was raised with a step rate of 3°C/min. […]
Classification field: true (1) = dTm at or over 4 K; false (0) = dTm under 4 K.

Study these solved cases before continuing.
CCc1ccc(NC(=O)C2(C(=O)Nc3cccc(-c4c[nH]c5ncnc(N6CCOCC6)c45)c3)CC2)cc1 = false (0)
COc1cc(NC(=O)C2(C(=O)Nc3cccc(-c4c[nH]c5ncnc(N6CCOCC6)c45)c3)CC2)ccc1F = true (1)
CC(=O)N1CCN(c2nc(Cl)nc3[nH]cc(-c4cccc(NC(=O)Nc5cc(C(C)(C)C)nn5-c5ccc(C)cc5)c4)c23)CC1 = true (1)

Please check the record Cn1cc(-c2c[nH]c3ncnc(N4CCOCC4)c23)cc1C#N and state if its dTm is at or above 4 K.
false (0)

Confirm if dTm reported for the compound C[C@@H]1CN(c2cc(-c3n[nH]c4ccc(OC5(C)CC5)cc34)ncn2)C[C@H](C)O1 is 4 K or above.
false (0)

Threshold query (dTm >= 4 K) on CC(C)(C)c1cc(NC(=O)Nc2cccc(-c3c[nH]c4ncnc(N5CCOCC5)c34)c2)n(-c2ccc3ncccc3c2)n1
true (1)

Reported dTm at or above 4 K? Cc1ccc(C(=O)Nc2ccc(CN3CCN(C)CC3)c(C(F)(F)F)c2)cc1C#Cc1cnc2[nH]ncc2c1 [GZD-824, reference compound]
true (1)

Does O=C(Nc1cccc(-c2c[nH]c3ncnc(N4CCOCC4)c23)c1)c1cccn(-c2ccc(F)cc2)c1=O have a reported dTm of at least 4 K?
false (0)

###

target: JNK3 (Homo sapiens, UniProt P53779); test: nanoBRET off-target validation
Sequence (P53779 whole entry): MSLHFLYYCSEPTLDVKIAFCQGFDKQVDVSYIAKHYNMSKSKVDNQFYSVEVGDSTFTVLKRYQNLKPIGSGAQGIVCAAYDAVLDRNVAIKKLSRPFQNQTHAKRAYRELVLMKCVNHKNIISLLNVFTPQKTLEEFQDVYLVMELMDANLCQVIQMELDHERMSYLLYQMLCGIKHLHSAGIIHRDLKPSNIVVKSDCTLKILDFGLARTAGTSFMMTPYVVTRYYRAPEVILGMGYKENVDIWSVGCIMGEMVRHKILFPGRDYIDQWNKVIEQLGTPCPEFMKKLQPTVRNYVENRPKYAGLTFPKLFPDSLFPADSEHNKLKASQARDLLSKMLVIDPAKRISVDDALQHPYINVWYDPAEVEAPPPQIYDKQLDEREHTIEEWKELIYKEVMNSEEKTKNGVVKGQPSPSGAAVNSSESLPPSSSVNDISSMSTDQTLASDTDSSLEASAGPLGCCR
endpoint.name: pEC50
One number for each entry, as −log10 of the molar value.

Lab note: need pEC50 for CCSc1nc(NC)c2c(-c3cccc(NC(=O)Nc4cc(C(C)(C)C)nn4-c4ccc(C)cc4)c3)c[nH]c2n1 on JNK3 (Homo sapiens, UniProt P53779), anyone have it?
4.82

###

Molecular target: ~100 representative kinases (Homo sapiens)
Construct: Recombinant protein kinase domains with a concentration of 2 μM
Sequence (P33981 1-857): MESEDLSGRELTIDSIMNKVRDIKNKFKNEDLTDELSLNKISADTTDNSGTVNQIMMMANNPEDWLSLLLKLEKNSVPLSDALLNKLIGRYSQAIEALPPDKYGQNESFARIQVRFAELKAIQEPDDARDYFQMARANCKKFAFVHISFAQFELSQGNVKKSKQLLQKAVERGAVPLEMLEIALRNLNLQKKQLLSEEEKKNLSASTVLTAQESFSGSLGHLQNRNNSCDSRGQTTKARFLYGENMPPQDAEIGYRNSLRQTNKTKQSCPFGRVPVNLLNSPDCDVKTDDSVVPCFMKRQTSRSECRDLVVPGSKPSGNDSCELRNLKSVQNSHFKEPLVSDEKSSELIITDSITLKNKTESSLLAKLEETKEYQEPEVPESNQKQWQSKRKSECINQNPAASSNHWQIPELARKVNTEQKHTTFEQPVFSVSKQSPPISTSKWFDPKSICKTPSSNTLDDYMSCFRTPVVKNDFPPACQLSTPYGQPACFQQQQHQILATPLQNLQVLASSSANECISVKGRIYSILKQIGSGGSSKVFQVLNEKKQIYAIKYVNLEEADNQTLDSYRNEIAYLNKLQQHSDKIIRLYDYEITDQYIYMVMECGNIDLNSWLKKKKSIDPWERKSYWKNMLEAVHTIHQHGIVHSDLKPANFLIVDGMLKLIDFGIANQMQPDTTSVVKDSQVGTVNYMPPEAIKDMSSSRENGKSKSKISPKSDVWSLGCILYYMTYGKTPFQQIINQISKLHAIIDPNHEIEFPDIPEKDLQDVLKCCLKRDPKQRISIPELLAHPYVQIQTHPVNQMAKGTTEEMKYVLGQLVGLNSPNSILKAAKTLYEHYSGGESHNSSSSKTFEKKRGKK
Assay: DSF 100 kinase selectivity screen;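 also: compound tested at 20 µM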
Type: binding
Details: Protein TTK; DSF; average of three replicates
endpoint.name: dTm (K)
Give bare numbers, in K.

See these solved cases before continuing.
CC(C)(C)c1cccc(NC(=O)C2(C(=O)Nc3cccc(-c4c[nH]c5ncnc(N6CCOCC6)c45)c3)CC2)c1 = 5.44
COc1cc(NC(=O)C2(C(=O)Nc3cccc(-c4c[nH]c5ncnc(N6CCOCC6)c45)c3)CC2)ccc1F = 7.84
O=C(Nc1ccccc1)C1(C(=O)Nc2cccc(-c3c[nH]c4ncnc(N5CCOCC5)c34)c2)CC1 = 7.12

What value of measured dTm is listed for CCSc1nc(NC)c2c(-c3cccc(NC(=O)Nc4cc(C(C)(C)C)nn4-c4ccc(C)cc4)c3)c[nH]c2n1 ?
6.59

###

Target: ~100 representative kinases (Homo sapiens)
Construct: Recombinant protein kinase domains with a concentration of 2 μM
Test: DSF 100 kinase selectivity screen;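 also: compound tested at 20 µM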
Format: binding
Settings: Protein AAK1; average of three replicates
Experimental: Recombinant protein kinase domains with a concentration of 2 μM were mixed with a 20 μM compound solution in dimethyl sulfoxide (DMSO), 20 mM Hepes (pH 7.5), and 500 mM NaCl. SYPRO Orange (5000×, Invitrogen) was added as a fluorescence probe (1μl/ml). Subsequently, temperature-dependent protein unfolding profiles were measured using the QuantStudio 5 realtime PCR machine (Thermo Fisher Scientific, Waltham, MA, USA). […] The temperature was raised with a step rate of 3°C/min. […]
Binary classification by dTm, with 3 K as an inclusive lower bound for T; all other cases are F.

COc1cc2c(Oc3ccc(NC(=O)C4(C(=O)Nc5ccc(F)cc5)CC4)cc3F)ccnc2cc1OCCCN1CCOCC1 [Foretinib, reference compound] = F

Hi team, for O=C(Nc1ccccc1)C1(C(=O)Nc2cccc(-c3c[nH]c4ncnc(N5CCOCC5)c34)c2)CC1 [Compound 12] , is the recorded dTm at or above 3 K?
T

Hello, I need to know if CC(C)(C)c1cccc(NC(=O)C2(C(=O)Nc3cccc(-c4c[nH]c5ncnc(N6CCOCC6)c45)c3)CC2)c1 [Compound 22] has measured dTm not below 3 K. Thanks!
F

Does CN[C@@H]1C[C@H]2O[C@@](C)([C@@H]1OC)n1c3ccccc3c3c4c(c5c6ccccc6n2c5c31)C(=O)NC4 [Staurosporine] have a reported dTm of at least 3 K?
T

Reported dTm at or above 3 K? COc1ccc(NC(=O)C2(C(=O)Nc3cccc(-c4c[nH]c5ncnc(N6CCOCC6)c45)c3)CC2)cc1 [Compound 16]
F

hey, is dTm for this one >= 3 K? COc1cc(NC(=O)C2(C(=O)Nc3cccc(-c4c[nH]c5ncnc(N6CCOCC6)c45)c3)CC2)ccc1F [Compound 21]
T

###

target: ~100 representative kinases (Homo sapiens); construct: Recombinant protein kinase domains with a concentration of 2 μM; assay: DSF 100 kinase selectivity screen; type: binding; conditions: protein MARK4; average of three replicates;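 also: compound tested at 20 µM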
Exercise: for every item that follows, state its recorded dTm.

C[C@@H]1CN(c2cc(-c3n[nH]c4ccc(OC5(C)CC5)cc34)ncn2)C[C@H](C)O1 [MLi2] = -0.55 K
COc1cc(NC(=O)C2(C(=O)Nc3cccc(-c4c[nH]c5ncnc(N6CCOCC6)c45)c3)CC2)ccc1F [Compound 21] = 4.12 K
O=C(Nc1cccc(-c2c[nH]c3ncnc(N4CCOCC4)c23)c1)C1(C(=O)Nc2ccc(F)cc2F)CC1 [Compound 23] = 2.83 K
CC(C)(C)c1cccc(NC(=O)C2(C(=O)Nc3cccc(-c4c[nH]c5ncnc(N6CCOCC6)c45)c3)CC2)c1 [Compound 22] = 4.58 K
Cc1cc(NC(=O)C2(C(=O)Nc3ccc(F)cc3)CC2)cc(-c2c[nH]c3ncnc(N4CCOCC4)c23)c1 [Compound 6] = -6.12 K
CN[C@@H]1C[C@H]2O[C@@](C)([C@@H]1OC)n1c3ccccc3c3c4c(c5c6ccccc6n2c5c31)C(=O)NC4 [Staurosporine] = 15.90 K

List the reported dTm of each compound below.
1. Cc1ccc(-n2nc(C(C)(C)C)cc2NC(=O)Nc2cccc(-c3c[nH]c4ncnc(N5CCOCC5)c34)c2)cc1 [Compound 29]
2. CCc1ccc(NC(=O)C2(C(=O)Nc3cccc(-c4c[nH]c5ncnc(N6CCOCC6)c45)c3)CC2)cc1 [Compound 15]

["3.91 K", "4.84 K"]
